Assay: solvent given as SMILES
Conditions: in CS(C)=O
Measured fluorescence lifetime determines class: bottom end (below 1 ns), midrange (1 ns to below 4 ns), top end (4 ns or more)

Example cases with answers are listed next.
| Compound | Category |
| --- | --- |
| c1ccc2c(c1)c1ccccc1c1[nH]c(-c3ccc(-c4nc5c6ccccc6c6ccccc6c5[nH]4)cc3)nc21 | midrange |
| CC1(C)C(/C=C/C2=C(Cl)C(=C/C=C3/N(CCCCS(=O)(=O)[O-])c4ccc5ccccc5c4C3(C)C)/CCC2)=[N+](CCCCS(=O)(=O)[O-])c2ccc3ccccc3c21 | bottom end |

Given `C#CCn1c2ccccc2c2cc(/C=C/c3cc(C)c4n3[B-](F)(F)[N+]3=C(C)C=C(C)C3=C4c3ccc(I)cc3)ccc21` , name the class its fluorescence lifetime places it in.
midrange

Given `CC(=O)O[B-]1(OC(C)=O)OC(/C=C/c2ccc(C)cc2)=CC(/C=C/c2ccc(C)cc2)=[O+]1` , name the class its fluorescence lifetime places it in.
midrange

Given Cc1c2oc3c(C)c(N)cc(C(=O)NC4OC(=O)C(C(C)C)N(C)C(=O)CN(C)C(=O)C5CCCN5C(=O)C(C(C)C)NC4=O)c3nc-2c(C(=O)NC2OC(=O)C(C(C)C)N(C)C(=O)CN(C)C(=O)C3CCCN3C(=O)C(C(C)C)NC2=O)c(N)c1=O (stereo unspecified) , name the class its fluorescence lifetime places it in.
midrange

Given `Brc1ccc(-c2nc(-c3ccc(-c4nc(-c5ccc(Br)cc5)c(-c5ccc(Br)cc5)[nH]4)cc3)[nH]c2-c2ccc(Br)cc2)cc1` , name the class its fluorescence lifetime places it in.
bottom end

Given `O=S(=O)(/N=c1\oc2cccc3c4c(-c5ccccc5)oc5cccc(c(c1-c1ccccc1)c23)c54)C(F)(F)F` , name the class its fluorescence lifetime places it in.
top end

Given `COc1ccc(-c2nc3c(c4c2-c2ccc(C#N)cc2CC4)-c2ccc(C#N)cc2CC3)cc1` , name the class its fluorescence lifetime places it in.
bottom end

Given `CCN(CC)c1ccc2cc(/C=C/C(=C(C#N)C#N)c3ccc4c(c3)c3ccccc3n4CC)c(=O)oc2c1` , name the class its fluorescence lifetime places it in.
top end

Given `O=C1CCCc2c1[nH]c1cc3c(cc21)OCO3` , name the class its fluorescence lifetime places it in.
midrange

Given `CC(=O)Nc1ccc2c3cccc4cccc(c5cccc1c52)c43` , name the class its fluorescence lifetime places it in.
top end

Given `CN(C)c1ccc2nc(/C=C/c3ccccc3)c(=O)oc2c1` , name the class its fluorescence lifetime places it in.
midrange

Given `c1ccc(-c2nc3c(c4c2-c2ccccc2CC4)-c2ccccc2CC3)cc1` , name the class its fluorescence lifetime places it in.
bottom end

Given `CCCCCCCCN1c2ccc(C#Cc3ccc(C(F)(F)F)cc3)cc2Sc2cc(C=O)ccc21` , name the class its fluorescence lifetime places it in.
top end

Given `CN(C)c1ccc(-c2nc3c(c4c2-c2ccc(C#N)cc2CC4)-c2ccc(C#N)cc2CC3)cc1` , name the class its fluorescence lifetime places it in.
midrange
